system: P. falciparum male gametocytes; test: P. falciparum Dual Gamete Formation Assay (PfDGFA), male readout (exflagellation); type: cell-based, Plasmodium falciparum NF54; settings: PfDGFA, 24 h incubation with gametocytes before induction, exflagellation readout; read-out: Male IC50
experimental_readout: IC50 (nM)
Give your result in nM as a bare value.

Observe how each entry below is paired with its result.
{"compound": "CCc1c(CCNCCCC(C)CCNCCc2ccc(OC)c(OC)c2CC)ccc(OC)c1OC.Cl (stereo not drawn) [TCMDC-132065]", "IC50 [nM]": 1950}
{"compound": "CN(CCCNCc1ccc2ccccc2c1)CCCNCc1ccc2ccccc2c1.Cl [TCMDC-137908]", "IC50 [nM]": 510}
{"compound": "CS(=O)(=O)O.c1ccc2c(CNCCCCCCNCc3c(OCC4CC4)ccc4ccccc34)c(OCC3CC3)ccc2c1 [TCMDC-137839]", "IC50 [nM]": 1400}
{"compound": "CCCOc1ccc(CCNCCCCNCCc2ccc(OCCC)c3ccccc23)c2ccccc12.CS(=O)(=O)O [TCMDC-137952]", "IC50 [nM]": 940}
{"compound": "COc1ccc2ccc(OC)c(CNCCCCCCNCc3c(OC)ccc4ccc(OC)cc34)c2c1.CS(=O)(=O)O [TCMDC-137796]", "IC50 [nM]": 1430}

Sure, the documented IC50 for CC(Cc1ccc(C(=O)Nc2ccc(CC(C)NCCc3cccc(Cl)c3)cc2)cc1)NCCc1ccc(C(F)(F)F)cc1 (stereo not drawn) [TCMDC-139790] is 1580

Lab note: measured IC50 of CCCCOc1ccc(C(=O)C(CCC(CNC(C)(C)C)C(=O)c2ccc(OCCCC)cc2)CNC(C)(C)C)cc1.Cl (stereo not drawn) [TCMDC-124120] was 1500

----------
molecules and their reported % inhibition male (individual replicates) R3
test system: P. falciparum male gametocytes; test: P. falciparum Dual Gamete Formation Assay (PfDGFA), male readout (exflagellation); type: cell-based, Plasmodium falciparum NF54; conditions: PfDGFA at 2µM, 24h preincubation with gametocytes prior to induction of gametogenesis; replicate R3
// note: answer is a bare numeric in %

{"molecule": "CC1(C)N=C(NC(=O)c2ccc([N+](=O)[O-])cc2)N=C(N)N1OCc1ccc2ccccc2c1 [TCMDC-131580]", "recorded_number": -18.0}
{"molecule": "COc1ccccc1CNc1ccnc(N2CC(Oc3ccc(F)cc3)C2)n1 [TCMDC-135118]", "recorded_number": -43.0}
{"molecule": "O=C(C1CCCC1)N1CCOC(CCN2CCC(c3ccccc3)CC2)(c2ccc(Cl)c(Cl)c2)C1 (stereo not shown) [TCMDC-135327]", "recorded_number": 11.7}

Now examine the next entry.
Value of % inhibition male (individual replicates) R3 reported for the molecule ON=C1CCc2cc(-c3cc(-c4ccc(OC5CCNCC5)cc4)oc3-c3ccncc3)ccc21 [TCMDC-141381] is 2.8

----------
Parameter: Cytotox ratio Pf Female. Scope: all listed entries.
system: P. falciparum female gametocytes; test: P. falciparum Dual Gamete Formation Assay (PfDGFA), female readout (Pfs25-positive female gametes); assay type: cell-based, Plasmodium falciparum NF54
Please reply with the number alone, leaving off any unit.

Example entries begin here.
{"compound": "Fc1ccc2[nH]c(-c3ccc(-c4ccc(CNCCN5CCNCC5)cc4)cc3)nc2c1.O=C(O)C(F)(F)F", "target_desc": "P. falciparum female gametocytes", "recorded_number": 2.9}
{"compound": "COc1cc2c(cc1S(=O)(=O)c1ccc(COc3ccc(C(F)(F)F)cc3)cc1)CNCC2.Cl", "target_desc": "P. falciparum female gametocytes", "recorded_number": 1.7}
{"compound": "Cl.NCC1(c2nc(-c3ccc(Cl)c(O)c3)c(-c3ccncc3)[nH]2)CCCCC1", "target_desc": "P. falciparum female gametocytes", "recorded_number": 53.2}
{"compound": "O=C1Nc2ccccc2C1=NNC(=S)N1CCOCC1", "target_desc": "P. falciparum female gametocytes", "recorded_number": 26.0}
{"compound": "Br.c1cc(Nc2nc(-c3ccc(-c4csc(Nc5ccncc5)n4)cc3)cs2)ccn1", "target_desc": "P. falciparum female gametocytes", "recorded_number": 26.8}

For `Cl.NC(=O)c1ccccc1Nc1nc(Nc2cccc(N3CCN(CCO)CC3)c2)ncc1Cl` the compound record lists Cytotox ratio Pf Female as 2.7

Documented Cytotox ratio Pf Female of Cc1ccc(C(C(=O)Nc2ccc(N3CCNCC3)c(Cl)c2)c2ccccc2)cc1 (stereo not shown) : 1.2

Data point: `Cc1ccc(S(=O)(=O)N(CCCNCc2cccc(O)c2)c2ccccc2)cc1` ; Cytotox ratio Pf Female = 4.8
